test: Bioavailability in dog at 0.10 mg/kg after po administration (n=3); format: ADME, organism-based, Canis lupus familiaris; details: in vivo, 0.1 mg/kg
Assay Readout: bioavailability (%)
Answers are plain numbers, in %.

Look up bioavailability: `O=C(O)c1cccc(C[C@@H]2CCCC=C2c2nc(-c3ccccc3)c(-c3ccccc3)o2)c1` 25
